Recorded values, source patent US20240158446A1.

system: human lung cancer strain NCI-H441;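 also: cell proliferation inhibition after four days measured by CellTiter-Glo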
pIC50: −log10 of the molar value.
Listed next: entries and their corresponding pIC50.

compound	pIC50
CCO[C@@H]1C[C@H]2C(=O)NC3(CCC3)C(=O)N(C)[C@@H](C3CCCC3)C(=O)N(C)[C@H](C(=O)N(C)C)CC(=O)N(C)[C@@H](CSC)C(=O)N[C@@H]([C@@H](C)CC)C(=O)N(C)CC(=O)N(C)[C@H]3C/C=C\CCN(C3=O)[C@@H](CC3CCCCC3)C(=O)N(C)CC(=O)N[C@@H](CCc3cc(F)c(C(F)(F)F)c(F)c3)C(=O)N2C1 [PP1463]	7.35
CCO[C@@H]1C[C@H]2C(=O)NC3(CCC3)C(=O)N(C)[C@@H](C(CC)CC)C(=O)N(C)[C@H](C(=O)N3CCCC3)CC(=O)N(C)[C@@H](COC)C(=O)N[C@@H]([C@@H](C)CC)C(=O)N(C)CC(=O)N(C)[C@H]3C/C=C\CCN(C3=O)[C@@H](CC3CCC(F)(F)CC3)C(=O)N(C)CC(=O)N[C@@H](CCc3cc(F)c(C(F)(F)F)c(F)c3)C(=O)N2C1 [PP1440]	7.16
CCC[C@H]1C(=O)N[C@@H]([C@@H](C)CC)C(=O)N(C)CC(=O)N(C)[C@H]2C/C=C\CCN(C2=O)[C@@H](Cc2ccc(C(F)(F)F)cc2)C(=O)N(C)CC(=O)N[C@@H](CCc2ccc3sccc3c2)C(=O)N2C[C@H](OCC)C[C@H]2C(=O)NC2(CCC2)C(=O)N(C)[C@@H](C2CCCC2)C(=O)N(C)[C@H](C(=O)N(C)C)CC(=O)N1C [PP1256]	7.16
CC[C@H](C)[C@@H]1NC(=O)[C@H](COC)N(C)C(=O)C[C@@H](C(=O)N(C)C)N(C)C(=O)[C@H](C2CCCC2)N(C)C(=O)C2(CC(C)(C)C2)NC(=O)[C@@H]2C[C@H](C)CN2C(=O)[C@H](CCc2ccc(C(F)(F)F)c(Cl)c2)NC(=O)CN(C)C(=O)[C@H](Cc2ccc(C)cc2)N2CC/C=C\C[C@@H](C2=O)N(C)C(=O)CN(C)C1=O [PP2502]	8.10
CC[C@H](C)[C@@H]1NC(=O)[C@H](COC)N(C)C(=O)C[C@@H](C(=O)N(C)C)N(C)C(=O)[C@H](C2CCCC2)N(C)C(=O)C2(CC(C)(C)C2)NC(=O)[C@@H]2C[C@H](C)CN2C(=O)[C@H](CCc2ccc(C(F)(F)F)c(OC)c2)NC(=O)CN(C)C(=O)[C@H](Cc2ccc(C)cc2)N2CC/C=C\C[C@@H](C2=O)N(C)C(=O)CN(C)C1=O [PP2385]	8.11
CC[C@H](C)[C@@H]1NC(=O)[C@H](COC)N(C)C(=O)C[C@@H](C(=O)N2CCCCC2)N(C)C(=O)[C@H](C2CCCC2)N(C)C(=O)C2(CC(C)(C)C2)NC(=O)[C@@H]2C[C@@H](OC3CCC3)CN2C(=O)[C@H](CCc2cc(F)c(C(F)(F)F)c(F)c2)NC(=O)CN(C)C(=O)[C@H](Cc2ccc(C(F)(F)F)cc2)N2CC/C=C\C[C@@H](C2=O)N(C)C(=O)CN(C)C1=O [PP2664]	7.70
